tested on: α1 adrenergic receptors (rat cerebral cortex); experiment: Radioligand binding assay, adrenergic α1 receptors; conditions: test compound 1×10^−6 M
readout_label: α1 [%] (%)
Answers are plain numbers, in %.

O=S(=O)(NC1CCN(CCCc2noc3cc(F)ccc23)C1)c1csc2ccccc12 (stereo not shown); 87
O=S(=O)(NC1CN(CCOc2cccc3[nH]ccc23)C1)c1ccccc1; 72
O=S(=O)(NC1CCN(CCOc2cccc3[nH]ccc23)C1)c1ccccc1 (stereo not shown); 77

Briefly, α1 [%] measured for Cc1c(S(=O)(=O)NC2CCN(CCCc3noc4cc(F)ccc34)C2)sc2ccc(F)cc12 (stereo not shown) : 70

###

molecular target: 5-HT1A receptor (rat hippocampus) (Rattus norvegicus); construct: hippocampus; from tissue; host or cells: rat hippocampus; assay: Radioligand binding assay, serotoninergic 5-HT1A receptors; details: binding assay result in %, Table 5a;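 further: test compound at 1 µM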
Sequence (P19327 whole entry): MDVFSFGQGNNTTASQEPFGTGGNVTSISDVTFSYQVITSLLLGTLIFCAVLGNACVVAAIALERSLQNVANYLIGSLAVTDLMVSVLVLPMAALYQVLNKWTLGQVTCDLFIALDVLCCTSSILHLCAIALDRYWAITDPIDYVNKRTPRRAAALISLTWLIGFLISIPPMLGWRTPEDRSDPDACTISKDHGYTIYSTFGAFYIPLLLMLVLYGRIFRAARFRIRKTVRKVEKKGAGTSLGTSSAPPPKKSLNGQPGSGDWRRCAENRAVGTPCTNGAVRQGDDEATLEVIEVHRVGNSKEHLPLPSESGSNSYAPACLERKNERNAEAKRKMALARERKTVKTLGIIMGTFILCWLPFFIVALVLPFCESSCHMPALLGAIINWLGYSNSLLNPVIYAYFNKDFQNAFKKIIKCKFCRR
readout_label: inhibition at 1 µM (%)
Answers are plain numbers, in %.

See these solved cases before continuing.
Cc1cccc(S(=O)(=O)NC2CN(CCOc3cccc4[nH]ccc34)C2)c1; 100
O=S(=O)(NC1CCN(CCCc2noc3cc(F)ccc23)CC1)c1cc2ccccc2s1; 49
O=S(=O)(NCC1CCN(CCOc2cccc3c2OCCO3)C1)c1ccc(Cl)cc1 (centres unmarked); 99

Hey, can you go through the list below and give me inhibition at 1 µM for every item?
1. Cc1c(S(=O)(=O)NC2CCN(CCCc3noc4cc(F)ccc34)C2)sc2ccc(F)cc12 (centres unmarked)
2. O=S(=O)(NCC1CN(CCOc2cccc3c2OCCO3)C1)c1cccs1
3. O=S(=O)(NC1CCN(CCCc2noc3cc(F)ccc23)C1)c1csc2ccccc12 (centres unmarked)
4. O=S(=O)(NC1CCN(CCCc2noc3cc(F)ccc23)CC1)c1ccc(-c2ccccc2)cc1
5. O=S(=O)(NC1CCN(CCCc2noc3cc(F)ccc23)C1)c1ccc2c(c1)OCO2 (centres unmarked)

1. 61
2. 71
3. 79
4. 20
5. 63

Reference source for all entries: patent US20140135310A1
